Experiment: Inhibition of ATPase activity in Escherichia coli ParC/ParE by ammonium molybdate/malachite green-based absorbance assay
// assign 1.0 if IC50 falls strictly below 2000 nM, else 0.0 (ties count as 0.0)

These recorded examples may help you get a feel for the data.
# compound, labelValue
measured = [
    ("CCNC(=O)Nc1cc(-c2ccncc2)c(-c2cncc(C(=O)O)c2)cn1", 0.0),
    ("CCNC(=O)Nc1ccc(-c2nc3cccc(C(N)=O)c3s2)cn1", 0.0),
    ("CCNC(=O)Nc1cc(Cl)c(-c2cncc(C(=O)O)c2)cn1", 0.0),
    ("CCNC(=O)Nc1cc(-c2nc(C(F)(F)F)cs2)c(-c2cncc(-c3noc(=O)[nH]3)c2)cn1", 1.0),
]

Exercise: # strict comparison: is reported IC50 < 2000 nM? input = `CCNC(=O)Nc1ccc(Oc2cccc(C(=O)O)c2)cn1`
Solution: 0.0

Exercise: # strict comparison: is reported IC50 < 2000 nM? input = `CCNC(=O)Nc1cc(-c2nc(C(F)(F)F)cs2)c(-c2cncc(C(N)=O)c2)cn1`
Solution: 1.0

Exercise: # strict comparison: is reported IC50 < 2000 nM? input = `CCNC(=O)Nc1ccc(-c2ccc(C(=O)O)cc2)cn1`
Solution: 0.0

Exercise: # strict comparison: is reported IC50 < 2000 nM? input = `CCNC(=O)Nc1cc(-c2nc(C(F)(F)F)cs2)c(-c2cncc(C(=O)O)c2)cn1`
Solution: 1.0

Exercise: # strict comparison: is reported IC50 < 2000 nM? input = `CCNC(=O)Nc1cc(-c2nc(C(F)(F)F)cs2)c(-c2cncc(-c3nnc(C)o3)c2)cn1`
Solution: 1.0

###

Test: Octanol-phosphate buffer partition coefficient, log D of the compound at pH 7.4 after 1 hr by shake flask method
Assay type: physicochemical
Listed next: entries and their corresponding logD at 1 h.
Write the value as a bare number.

Use the examples below as a reference point.
# compound, logD at 1 h
rows = [
    ("CCNC(=O)Nc1cc(-c2nc(C(F)(F)F)cs2)c(-c2cncc(-c3noc(=O)[nH]3)c2)cn1", 0.28),
    ("CCNC(=O)Nc1cc(Br)c(-c2cncc(C(=O)O)c2)cn1", -1),
    ("CCNC(=O)Nc1cc(-c2ccncc2)c(-c2cncc(C(=O)O)c2)cn1", -0.82),
    ("CCNC(=O)Nc1cc(-c2nc(C(F)(F)F)cs2)c(-c2cncc(-c3nnc(C)o3)c2)cn1", 2.4),
]

Let's switch to this compound now.
Exercise: Return reported logD at 1 h. Input compound: `CCNC(=O)Nc1cc(-c2cccnc2)c(-c2cncc(C(=O)O)c2)cn1`
Solution: -1.5

###

Listed next: entries and their corresponding MIC.
Assay: Antibacterial activity against fluoroquinolone-resistant Streptococcus pneumoniae D39 NCTC 7466 expressing ParE/GyrB T172A mutant assessed as growth inhibition after 18 to 24 hrs by CLSI broth microdilution method
Type: functional
Could you give me the number in µg/mL? Just the number is fine.

Use the examples below as a reference point.
# compound, measuredValue
measured = [
    ("C[C@H]1COc2c(N3CCN(C)CC3)c(F)cc3c(=O)c(C(=O)O)cn1c23.C[C@H]1COc2c(N3CCN(C)CC3)c(F)cc3c(=O)c(C(=O)O)cn1c23.O [LEVOFLOXACIN]", 0.5),
    ("CN(C)[C@@H]1C(O)=C(C(N)=O)C(=O)[C@@]2(O)C(O)=C3C(=O)c4c(O)cccc4[C@@](C)(O)[C@H]3C[C@@H]12 [TETRACYCLINE]", 0.25),
    ("CO[C@@H]1[C@@H](OC(N)=O)[C@@H](O)[C@H](Oc2ccc3c(O)c(NC(=O)c4ccc(O)c(CC=C(C)C)c4)c(=O)oc3c2C)OC1(C)C [NOVOBIOCIN]", 2),
]

Exercise: Return reported MIC. Input compound: `CCNC(=O)Nc1cc(-c2nc(C(F)(F)F)cs2)c(-c2cncc(-c3n[nH]c(=O)o3)c2)cn1`
Solution: 0.01
